FYI, the data here is from patent US20240317871A1.

Target: T1, cynomolgus monkey HVEM (cynomolgus monkey, UniProt A0A2K5W0R1 39-203); note: test concentration or dose not given here
T1 sequence: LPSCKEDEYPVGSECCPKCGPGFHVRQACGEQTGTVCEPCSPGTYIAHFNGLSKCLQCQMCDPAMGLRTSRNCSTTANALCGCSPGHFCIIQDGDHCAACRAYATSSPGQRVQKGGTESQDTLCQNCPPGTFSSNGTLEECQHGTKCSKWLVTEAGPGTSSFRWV
Assay: ELISA
Cut-off 0.07 on ELISA signal: below means class 1, at or above means class 0.

Ab_055 (H5S19-1A1A) (antibody, V domains shown, also called Ab_55) VH: DVQLQESGPGLVKPSQSLSLTCTVTGYSITSDYAWNWIRQFPGNKLEWMGYIAYSGGTSYSPSLKSRISITRDTSKNQFFLQLNSVTTEDTATYYCVYFKYGGAFAYWGQGTLVTVSA VL: NIVLTQSPASLAVSLGQRATISCRASESVDSYGNSLMHWYQQKPGQPPKLLIYLASNLESGVPARFSGSGSRTDFTLTIDPVEADDAATYYCQQNNEDPPTFGGGTKLEI : class 0
Ab_079 (H5S20-22A18A) (antibody, V domains shown, also called Ab_79) VH: EVQLQQSGAELVKPGASVKLSCTASGFNIKDTYMHWVKQRPEQGLEWIGRIDPANGNTKYAPKFQGKATITADTSSNTAYLQLSSLTSEDTAVYYCARSFGNYFDYWGQGTTLTVSS VL: NIVLTQSPASLAVSLGQRATISCRASESVDSYGNSFMHWYQQKPGQPPKLLIYLASNLESGVPARFSGSGSRTDFTLTIDPVEADDAATYYCQQNYADPWTFGGGTKLEIK : class 1
Ab_063 (H5S20-4A4A) (antibody, V domains shown, also called Ab_159; Ab_63) VH: EVKLVESGGGLMKPGGSLKLSCAASGFTFSSYAMSWVRQTPETRLEWVASISSGGSTYYPDSVKGRFTISRDNVRNILYLQMSSLRSEDTAMYFCTRGGYGSSYVIWGQGTTLTVSS VL: DIVMSQSPSSLAVSVGEKITMSCKSSQSLLFSSIQKNYLAWYQQKPGQSPKLLVYWASTRESGVPDRFTGSGSGTDFTLTISSVKAEDLAVYYCQQYYSYPFTFGSGTKLEIK : class 0
Ab_084 (H5S20-51A40A) (antibody, V domains shown, also called Ab_84) VH: QVQLKQSGPGLVQPSQSLSITCTVSGFSLTSYGVHWVRQSPGKGLEWLGVIWRGGSTDYNAAFMSRLSITKDNSKSQVFFKMNSLQADDTAIYYCAKNRGYGEGYYAMDYWGQGTSVTVSS VL: DIVMTQSQKFMSTSVGDRVSVTCKASQNVGTNVAWYQQKPGQSPKALIYSASYRYSGVPDRFTGSGSGTDFTLTISNVQSEDLAEYFCQQYNSYPLTFGAGTKLELK : class 1
Ab_039 (H5S15-21A19A) (antibody, V domains shown, also called Ab_39) VH: QIQLVQSGPDLKKPGETVKISCKASGYTFTNYGMNWVKQAPGKDLKWMGWINTYTGEPTYADDFKGRFAFSLETSASTAYLQINNLKNDDTATYFCARSINYDSDEKWGQGTSVTVSS VL: QIVLTQSPAIMSASLGERVTLTCTASSSVSSSYLHWYQQKPGSSPKLWIYDTSNLASGVPARFSGSGSGTSYSLTISSMEAEDAATYYCHQYHRSQWTFGGGTKLEIK : class 0
Ab_032 (H5S15-7A8A) (antibody, V domains shown, also called Ab_32) VH: QIQLVQSGPELKKPGETVKISCKASGYTFTNYGMNWVKQAPGKGLKWVGWINTYTGEPTYAEDFKGRFAFSLETSASTAYLQINNLKNEDMATYFCARSFYGSEAYWGQGTLVTVSA VL: QIVLTQSPAIMSASLGEEITLTCSASSSVSFMHWYQQKSGTSPKLLIYSTSNLASGVPSRFSGSGSGTFYSLTISSVEAEDAADYYCHQWSSYLWTFGGGAKLEIK : class 0
Ab_081 (H5S20-44A32A) (antibody, V domains shown, also called Ab_81) VH: EVKLVESGGGLVQPGGSLKLSCAASGFTFSSYTMSWVRQTPEKRLEWVAYISNGGGSTYYPDTVKGRFTISRDNAKNTLYLQMSSLKSEDTAMYYCARHRGYGSSYNYAMDYWGQGTSVTVSS VL: DIVMTQSQKFMSTSVGDRVSVTCKASQNVGTNVAWYQQKPGQSPKALIYSASYRYSGVPDRFTGSGSGTDFTLTISNVQSEDLAEYFCQQYNSYPFTFGSGTKLEIK : class 0
Ab_008 (H5S14-11A10A) (antibody, V domains shown, also called Ab_8) VH: EVKLVESGGGLVKPGGSLRLSCAASGFTFSSFAMSWIRQTPEKGLEWVASITTGGSSYSPDSLKGRFTISRDNVRNIVYLQMSSLRSEDTAMYACARGGGGNYFWFAYWGQGTLVTVSA VL: DVVMTQTPLSLPVSLGDQASISCRSSQSLVHSNGNTYLHWYLQKPGQSPKLLIYKVSNRFSGVPDRFSGSGSGTDFTLKISRVEAEDLGVYFCSQSIHVPFTFGSGTKLEIK : class 0
